B1: ATL3 (parent)
chain: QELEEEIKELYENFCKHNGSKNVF

Variants of: B1
Assay: protein stability index of a GFP-peptide fusion (GPS, HEK-293T) (PSI 1-6); higher = more stable;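 note: lentivirally expressed fusions sorted by FACS into six bins by GFP to DsRed ratio, PSI derived from sequencing read proportions per bin multiplied by bin number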
Conditions: c terminus: a fixed tail appended
Let's look at some variants and their measured protein stability index.
observed property: protein stability index

INSERT INTO measurements (mutation_string, recorded_value) VALUES
  ('Y11K', 4.88),
  ('L3Q', 4.01),
  ('E6F', 1.93),
  ('F14D', 4.46),
  ('L3E', 4.29),
  ('I7S', 4.09),
  ('E9H', 2.27),
  ('F24A', 3.45),
  ('L10Q', 3.88),
  ('N22G', 2.28),
  ('Y11I', 3.64),
  ('L3N', 2.42),
  ('E12M', 2.41),
  ('Q1T', 3.19),
  ('V23T', 2.49),
  ('E2V', 2.3),
  ('I7E', 4.94),
  ('K21R', 2.12),
  ('N22M', 2.8),
  ('L3H', 4),
  ('Y11A', 4.25),
  ('I7V', 3.75),
  ('E6K', 2.48),
  ('N18M', 2.69),
  ('V23S', 2.38),
  ('K16Y', 2.49),
  ('K8N', 2.45),
  ('E9V', 2.4),
  ('S20N', 2.48),
  ('L3W', 2.21),
  ('G19W', 1.91),
  ('E5Q', 1.81),
  ('Q1P', 2.83),
  ('C15N', 3.97),
  ('L10M', 3.02),
  ('E2R', 2.8),
  ('E6H', 3),
  ('K16D', 3.53),
  ('H17S', 2.62),
  ('L10D', 4.46),
  ('V23D', 2.16),
  ('K21D', 2.11),
  ('K8R', 2.24),
  ('C15G', 4.07),
  ('L10F', 3.23),
  ('K8M', 2.53),
  ('I7Q', 4.5),
  ('L3P', 3.9),
  ('N22S', 2.96),
  ('G19Q', 2.73),
  ('E6W', 1.75),
  ('K8G', 3.67),
  ('N13L', 1.83),
  ('Q1Y', 2.2),
  ('L3M', 3.02),
  ('K16C', 3.43),
  ('E5P', 3.85),
  ('L3D', 4.33),
  ('E5H', 2.42),
  ('E5D', 3.27),
  ('E5W', 1.73),
  ('E9K', 2.38),
  ('F14I', 3.16),
  ('E2D', 3.03),
  ('L3T', 3.83),
  ('K16M', 2.79),
  ('K21P', 2.37),
  ('S20L', 2.41),
  ('I7N', 4.52),
  ('I7H', 4.28),
  ('E6L', 1.75),
  ('H17Q', 2.44),
  ('V23W', 2.85),
  ('Q1V', 2.08),
  ('S20H', 2.59),
  ('N22V', 2.62),
  ('N18K', 2.55),
  ('K16E', 3.81),
  ('K16T', 3.03),
  ('E9R', 2.59),
  ('K21M', 1.85),
  ('F14L', 3.27),
  ('E5L', 2.23),
  ('K8H', 2.86),
  ('Y11M', 3.96),
  ('C15L', 1.97),
  ('N18F', 2.3),
  ('S20Q', 2.45),
  ('C15W', 3.73),
  ('H17K', 2.67),
  ('G19M', 2.46);
